tgt: human ether-à-go-go-related gene (hERG) potassium channel (human, UniProt Q12809)
Sequence (Q12809 whole entry, looked up): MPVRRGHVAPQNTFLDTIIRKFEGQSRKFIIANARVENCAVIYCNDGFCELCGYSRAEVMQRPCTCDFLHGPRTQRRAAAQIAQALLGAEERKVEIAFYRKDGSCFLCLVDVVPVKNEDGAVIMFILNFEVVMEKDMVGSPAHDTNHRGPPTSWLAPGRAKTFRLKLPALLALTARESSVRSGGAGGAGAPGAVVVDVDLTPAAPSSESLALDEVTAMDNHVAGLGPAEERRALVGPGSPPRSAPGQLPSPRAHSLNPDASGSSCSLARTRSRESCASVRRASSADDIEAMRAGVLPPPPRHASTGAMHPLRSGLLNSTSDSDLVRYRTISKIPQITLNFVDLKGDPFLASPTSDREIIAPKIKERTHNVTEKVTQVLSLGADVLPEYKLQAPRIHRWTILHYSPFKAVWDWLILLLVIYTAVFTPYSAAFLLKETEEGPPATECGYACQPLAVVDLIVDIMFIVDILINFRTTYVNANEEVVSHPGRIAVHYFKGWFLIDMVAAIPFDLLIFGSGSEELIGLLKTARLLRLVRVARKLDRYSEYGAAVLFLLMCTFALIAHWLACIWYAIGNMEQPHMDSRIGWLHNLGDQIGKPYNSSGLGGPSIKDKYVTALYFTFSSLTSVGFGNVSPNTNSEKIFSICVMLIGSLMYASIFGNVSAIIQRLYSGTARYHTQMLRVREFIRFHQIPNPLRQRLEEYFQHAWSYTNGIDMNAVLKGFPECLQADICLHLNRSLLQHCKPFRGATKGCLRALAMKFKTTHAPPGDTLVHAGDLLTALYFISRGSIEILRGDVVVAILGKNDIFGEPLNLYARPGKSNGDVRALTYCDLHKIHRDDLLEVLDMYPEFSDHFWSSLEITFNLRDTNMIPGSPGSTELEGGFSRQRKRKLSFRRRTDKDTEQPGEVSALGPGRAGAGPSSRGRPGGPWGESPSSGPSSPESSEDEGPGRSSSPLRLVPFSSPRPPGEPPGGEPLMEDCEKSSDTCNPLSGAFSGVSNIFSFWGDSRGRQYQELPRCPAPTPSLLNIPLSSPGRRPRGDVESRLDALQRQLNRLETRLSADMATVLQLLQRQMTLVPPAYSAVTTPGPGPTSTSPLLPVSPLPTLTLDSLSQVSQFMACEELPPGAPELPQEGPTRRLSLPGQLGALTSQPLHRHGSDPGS
assay-summary: primary screen, population patch clamp on CHO cells stably expressing hERG; higher = less effect of the substance;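 also: peak tail current of the secondary pulse compared with the same well before compound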
Among all 310,000 compounds or so, about 14,000 (4.5%) showed an effect of 50% or more. Effects have a minus sign here. Only a selection was taken, and strong results are over-represented in it overall.
Decision: hERG current change (%, negative = inhibition) at 10uM compared against -30%; not below it gives class 1, below it gives class 0.

>  <molecule>
C=CCc1ccc(OCCCCN2CCC(C)CC2)c(OC)c1

>  <category>
class 0

$$$$

Tell me whether hERG current change (%, negative = inhibition) at 10uM is at least -30% here: C=CCc1ccc(OCCCOc2ccc(C(=O)O)cc2)c(OC)c1
class 1

Then this molecule: Cc1cc(OCC#N)nc(N)n1
class 1

Then this molecule: O=c1c2ccccc2[nH]c(=S)n1CCCN1CCOCC1
class 1

Then this molecule: COc1ccccc1N1CCN(C2CCN(C(=O)COc3cccc(C)c3)CC2)CC1.O=C(O)C(=O)O
class 0

Then this molecule: O=C1CC(c2ccccc2)c2ccccc21 (stereo not drawn)
class 1

Then this molecule: O=c1c2ccccc2[nH]c(=S)n1CCN1CCN(Cc2ccccc2)CC1
class 1

Then this molecule: O=C(CSc1nnc2scc(-c3ccccc3)n12)N1CCN(Cc2ccccc2)CC1
class 0

Then this molecule: CC1CCN(CCCn2c(=S)[nH]c3ccccc3c2=O)CC1
class 0

Then this molecule: C=CCc1ccc(OCCCNC2CCCC2)c(OC)c1
class 0

Then this molecule: COc1ccccc1N1CCN(C2CCN(C(=O)COc3ccccc3)CC2)CC1
class 1

Then this molecule: C=CCc1ccc(OCCCN2CCCC(C)C2)c(OC)c1.O=C(O)C(=O)O (stereo not drawn)
class 0

Then this molecule: COc1ccc(C(=O)N2CCC(N3CCN(c4ccccc4)CC3)CC2)cc1.O=C(O)C(=O)O
class 0

Then this molecule: C=CCc1ccc(OCCCCOc2ccc(C(=O)O)cc2)c(OC)c1
class 1

Then this molecule: Cc1ccc(-c2nc(NC(=O)CSc3nnc4scc(-c5ccccc5)n34)ns2)cc1
class 1

Then this molecule: O=C(CSc1nnc2scc(-c3ccccc3)n12)NCc1ccc2c(c1)OCO2
class 1

Then this molecule: C=CCc1ccc(OCCCCN2CC(C)OC(C)C2)c(OC)c1.O=C(O)C(=O)O (stereo not drawn)
class 1

Then this molecule: COc1ccccc1N1CCN(C2CCN(C(=O)c3cccc(F)c3)CC2)CC1.O=C(O)C(=O)O
class 0
